tested on: Wild type; assay: S. aureus survival, RN4220 and DeltatarO strains – OD600, teichoic acid synthesis inhibitors, primary screen (AID 463173); settings: S. aureus RN4220 wild type/DeltatarO growth, OD600, 18 h, hits give low values, screened at 18.75 µg/mL (by protocol)
About 1,700 (3.3%) of roughly 52,000 compounds were called active. Many of the other results were omitted from the sample, so actives are more common in it than they were.
PROPERTY: survival (%)
# unit: % | format: bare number

Consider the worked cases shown below.
Q: If you can, please state the reported survival value of COCCNC(=S)N1CCC(c2nc(-c3ccc(N(C)C)cc3)no2)CC1 .
Result: 107

Q: If you can, please state the reported survival value of Cc1cccc(-c2nnc(SCC(=O)OC(C)C)n2C)c1 .
Result: 106

Q: If you can, please state the reported survival value of COc1ccccc1NC(=O)C(=O)NCC(c1ccc2c(c1)OCO2)N1CCN(C)CC1 (stereo not drawn) .
Result: 81

Q: If you can, please state the reported survival value of N#Cc1c(-n2ncnc2-c2cccc(Cl)c2)sc2c1CCCCC2 .
Result: 58

Q: If you can, please state the reported survival value of N#Cc1c(-n2ncnc2-c2ccc(F)cc2)sc2c1CCCCC2 .
Result: -2

Q: If you can, please state the reported survival value of O=C(CSc1nc2c(c(=O)[nH]1)CCC2)Nc1cc(C(F)(F)F)ccc1Cl .
Result: 85

Further cases:
Q: If you can, please state the reported survival value of CCOC(=O)c1cccc(NC(=O)CCn2nc(C)c3c(C)n(-c4ccccc4)nc3c2=O)c1 .
Result: 73

Q: If you can, please state the reported survival value of CCOc1ccc(-c2ncnn2-c2sc3c(c2C#N)CCCCC3)cc1 .
Result: 3
